# ASSAYED_TARGET: Amine oxidase [flavin-containing] A (Homo sapiens, UniProt P21397)
# Sequence (P21397 whole entry): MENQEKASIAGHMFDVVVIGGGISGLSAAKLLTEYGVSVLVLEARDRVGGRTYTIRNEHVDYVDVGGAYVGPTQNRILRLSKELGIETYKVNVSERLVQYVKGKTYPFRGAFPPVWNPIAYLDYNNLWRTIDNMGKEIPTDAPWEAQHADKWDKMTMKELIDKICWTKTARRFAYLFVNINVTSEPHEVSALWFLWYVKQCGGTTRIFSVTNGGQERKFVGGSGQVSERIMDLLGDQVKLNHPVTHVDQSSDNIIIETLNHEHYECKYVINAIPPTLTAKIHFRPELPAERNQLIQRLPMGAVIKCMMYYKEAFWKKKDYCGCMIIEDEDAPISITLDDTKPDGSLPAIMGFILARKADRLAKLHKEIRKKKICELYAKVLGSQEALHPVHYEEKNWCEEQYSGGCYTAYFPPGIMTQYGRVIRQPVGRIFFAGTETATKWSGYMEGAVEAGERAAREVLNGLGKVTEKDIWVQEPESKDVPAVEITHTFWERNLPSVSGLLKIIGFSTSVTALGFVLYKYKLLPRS
# ASSAY_METHOD_TEXT: Irreversible inhibition of recombinant human MAO-A expressed in baculovirus infected BT1 cells using p-tyramine as substrate by Lineweaver-Burk plot analysis
METRIC_NAME: Ki

CN(CCCCCCCCCCCCN=C=S)Cc1ccccc1 ... 5 µM

====

Recorded fold change (FC) values for a group of compounds are listed next.
# ASSAYED_TARGET: UniProt P21397
# ASSAY_METHOD_TEXT: Ratio of relative Vmax to Km for recombinant human MAO-A expressed in baculovirus infected BT1 cells assessed as hydrogen peroxide generation rate using p-tyramine as substrate at 200 uM preincubated for 30 mins by Amplex Red assay
METRIC_NAME: fold change (FC)

NCCCNCCCCNCCCNCc1ccc2ccccc2c1 ... 0.62
NCCCCCCCCNCCCNCc1cccs1 ... 0.69
NCCCNCCCCNCCCNCc1ccccc1 ... 0.38
NCCCNCCCCNCCCNCc1cccs1 ... 0.57
NCCCNCCCCNCCCNCc1cccnc1 ... 0.72
NCCCNCCCCNCCCN ... 0.86
c1ccc(CNCCCCCCCCCCCCNCc2ccccc2)cc1 ... 0.29

====

# ASSAYED_TARGET: Amine oxidase [flavin-containing] A (Homo sapiens, UniProt P21397)
# ASSAY_METHOD_TEXT: Competitive inhibition of MAOA in human SH-SY5Y cells using p-tyramine as substrate preincubated for 5 mins by Lineweaver-Burk plot analysis
# Format: cell-based
METRIC_NAME: Ki

CN(CCCCCCCCCCCCN=C=S)Cc1ccccc1 ... 4.9 µM

====

# ASSAYED_TARGET: Amine oxidase [flavin-containing] B (Homo sapiens)
# Sequence (P27338 whole entry): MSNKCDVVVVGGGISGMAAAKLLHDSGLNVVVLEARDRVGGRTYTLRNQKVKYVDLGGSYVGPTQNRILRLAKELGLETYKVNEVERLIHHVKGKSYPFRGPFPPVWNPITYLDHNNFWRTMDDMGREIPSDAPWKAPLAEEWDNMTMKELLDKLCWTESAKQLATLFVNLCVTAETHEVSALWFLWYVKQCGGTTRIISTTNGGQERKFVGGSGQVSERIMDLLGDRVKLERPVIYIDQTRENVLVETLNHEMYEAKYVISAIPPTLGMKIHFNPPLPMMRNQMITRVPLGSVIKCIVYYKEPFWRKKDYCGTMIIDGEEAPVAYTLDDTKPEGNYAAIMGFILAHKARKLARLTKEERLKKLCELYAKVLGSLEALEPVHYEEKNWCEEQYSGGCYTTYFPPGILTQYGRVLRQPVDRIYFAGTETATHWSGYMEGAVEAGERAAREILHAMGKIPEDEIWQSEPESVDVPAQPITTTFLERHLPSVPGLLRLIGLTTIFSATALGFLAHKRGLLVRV
# ASSAY_METHOD_TEXT: Reversible inhibition of recombinant human MAO-B expressed in baculovirus infected BT1 cells using benzylamine as substrate at 200 uM preincubated for 30 mins by Lineweaver-Burk plot analysis
pKi: −log10 of the molar value.
METRIC_NAME: pKi

c1ccc(CNCCCCCCCCCCCCNCc2ccccc2)cc1 ... 2.98
NCCCNCCCCNCCCNCc1cccs1 ... 3.38
NCCCNCCCCNCCCNCc1ccccc1 ... 3.11

====

# ASSAYED_TARGET: Amine oxidase [flavin-containing] B (Homo sapiens, UniProt P27338)
# ASSAY_METHOD_TEXT: Ratio of relative Vmax to Km for recombinant human MAO-B expressed in baculovirus infected BT1 cells assessed as hydrogen peroxide generation rate preincubated for 30 mins by Amplex Red assay
# RUN_CONDITIONS: 0.5 h
Parameter: fold change (FC). Scope: all listed entries.
METRIC_NAME: fold change (FC)

CN(CCCCCCCCCCCCN)Cc1ccccc1 ... 17.5
NCCCCCCCCCCCCNCc1ccccc1 ... 18.6
NCCCOCCCCOCCCNCc1cccs1 ... 0.21
NCCCCCCCCCCCCNCc1cccs1 ... 12

====

molecules and their reported fold change (FC)
# ASSAYED_TARGET: UniProtKB P27338
# Sequence (P27338 whole entry): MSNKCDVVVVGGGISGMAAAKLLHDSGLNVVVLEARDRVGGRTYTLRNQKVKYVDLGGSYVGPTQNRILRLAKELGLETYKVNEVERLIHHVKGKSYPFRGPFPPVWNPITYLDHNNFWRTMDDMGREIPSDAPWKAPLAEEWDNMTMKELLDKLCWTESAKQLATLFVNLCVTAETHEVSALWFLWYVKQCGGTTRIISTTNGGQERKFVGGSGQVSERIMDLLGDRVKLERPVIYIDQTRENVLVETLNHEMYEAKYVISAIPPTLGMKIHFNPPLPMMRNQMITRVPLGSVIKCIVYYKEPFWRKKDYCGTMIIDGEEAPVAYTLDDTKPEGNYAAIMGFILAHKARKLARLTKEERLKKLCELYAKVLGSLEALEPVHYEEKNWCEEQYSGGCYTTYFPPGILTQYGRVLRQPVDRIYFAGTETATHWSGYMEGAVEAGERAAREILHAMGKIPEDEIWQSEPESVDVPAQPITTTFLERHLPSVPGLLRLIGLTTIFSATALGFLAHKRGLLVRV
# ASSAY_METHOD_TEXT: Activity at recombinant human MAO-B expressed in baculovirus infected BT1 cells assessed as hydrogen peroxide generation rate per min/mg using benzylamine as substrate at 200 uM preincubated for 30 mins by Amplex Red assay relative to control
METRIC_NAME: fold change (FC)

NCCCNCCCCNCCCNCc1cccs1 ... 0.63
c1ccc(CNCCCCCCCCCCCCNCc2ccccc2)cc1 ... 0.62
NCCCNCCCCNCCCNCc1ccccc1 ... 0.97
NCCCNCCCCNCCCNCc1ccc2ccccc2c1 ... 0.81
NCCCNCCCCNCCCN ... 0.98
NCCCCCCCCNCCCNCc1cccs1 ... 0.71
NCCCNCCCCNCCCNCc1cccnc1 ... 0.93

====

# ASSAYED_TARGET: Amine oxidase [flavin-containing] A (Homo sapiens, UniProt P21397)
# ASSAY_METHOD_TEXT: Ratio of relative Vmax to Km for recombinant human MAO-A expressed in baculovirus infected BT1 cells assessed as hydrogen peroxide generation rate preincubated for 30 mins by Amplex Red assay
# RUN_CONDITIONS: 0.5 h
Listed compounds paired with reported fold change (FC)
METRIC_NAME: fold change (FC)

NCCCCCCCCCCCCNCc1cccs1 ... 0.29
NCCCCCCCCCCCCNCc1ccccc1 ... 0.4
NCCCOCCCCOCCCNCc1cccs1 ... 0.06
CN(CCCCCCCCCCCCN)Cc1ccccc1 ... 0.6

====

# ASSAYED_TARGET: Amine oxidase [flavin-containing] A (Homo sapiens, UniProt P21397)
# ASSAY_METHOD_TEXT: Activity at recombinant human MAO-A expressed in baculovirus infected BT1 cells assessed as hydrogen peroxide generation rate per min/mg using p-tyramine as substrate at 200 uM preincubated for 30 mins by Amplex Red assay relative to control
METRIC_NAME: fold change (FC)

NCCCCCCCCNCCCNCc1cccs1 ... 0.96
NCCCNCCCCNCCCNCc1ccc2ccccc2c1 ... 0.52
NCCCNCCCCNCCCNCc1cccnc1 ... 0.52
NCCCNCCCCNCCCN ... 0.77
NCCCNCCCCNCCCNCc1cccs1 ... 0.52
NCCCNCCCCNCCCNCc1ccccc1 ... 0.48
c1ccc(CNCCCCCCCCCCCCNCc2ccccc2)cc1 ... 0.52

====

# ASSAYED_TARGET: Amine oxidase [flavin-containing] A (Homo sapiens)
# ASSAY_METHOD_TEXT: Mixed type inhibition of recombinant human MAO-A expressed in baculovirus infected BT1 cells using p-tyramine as substrate by Lineweaver-Burk plot analysis
pKi: −log10 of the molar value.
METRIC_NAME: pKi

c1ccc(CNCCCCCCCCCCCCNCc2ccccc2)cc1 ... 4.26
NCCCNCCCCNCCCNCc1cccs1 ... 3.65
NCCCNCCCCNCCCNCc1ccccc1 ... 3.77

====

# ASSAYED_TARGET: Amine oxidase [flavin-containing] B (Homo sapiens, UniProt P27338)
# Sequence (P27338 whole entry): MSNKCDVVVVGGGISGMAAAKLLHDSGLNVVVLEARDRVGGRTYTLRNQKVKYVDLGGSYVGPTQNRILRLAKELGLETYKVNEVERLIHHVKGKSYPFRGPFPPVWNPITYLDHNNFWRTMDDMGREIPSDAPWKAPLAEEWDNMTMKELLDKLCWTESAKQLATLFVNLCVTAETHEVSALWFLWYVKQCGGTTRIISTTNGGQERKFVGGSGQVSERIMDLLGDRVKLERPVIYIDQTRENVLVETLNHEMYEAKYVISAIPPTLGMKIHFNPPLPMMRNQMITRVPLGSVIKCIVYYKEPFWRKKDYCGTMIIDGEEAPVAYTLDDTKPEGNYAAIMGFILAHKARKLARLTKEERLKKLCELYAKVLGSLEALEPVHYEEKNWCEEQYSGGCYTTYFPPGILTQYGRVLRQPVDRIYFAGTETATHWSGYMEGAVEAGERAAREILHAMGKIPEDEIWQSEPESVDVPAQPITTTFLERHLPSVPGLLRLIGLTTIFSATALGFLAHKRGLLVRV
# ASSAY_METHOD_TEXT: Activity at recombinant human MAO-B expressed in baculovirus infected BT1 cells assessed as hydrogen peroxide generation rate preincubated for 30 mins by Amplex Red assay relative to control
METRIC_NAME: fold change (FC)

NCCCCCCCCCCCCNCc1ccccc1 ... 1
NCCCCCCCCCCCCNCc1cccs1 ... 0.53
NCCCOCCCCOCCCNCc1cccs1 ... 0.19
CN(CCCCCCCCCCCCN)Cc1ccccc1 ... 0.24

Source of measurements: ChEMBL document CHEMBL3085760
